target: MAP3K8 (human); assay: radiometric filter-binding kinase assay, Kinase HotSpot; conditions: compound 0.5 µM; ATP 10 µM
observation.type: residual activity
Enter the number, and then the unit.

Cc1nc(-c2ccccc2)c(-c2ccncc2)o1 ... 89.9%
CC(C)(C)c1cc(C=C(C#N)C#N)cc(Br)c1O ... 104%
Cn1c2ccccc2c2c3c(c4c5ccccc5n(CCC#N)c4c21)CNC3=O ... 111%

Give its residual activity value. Item: CN(C)c1ccc(/C=C2\C(=O)Nc3ccccc32)cc1
99.6%

Give its residual activity value. Item: O=C1NC(=O)c2c1c1c3ccccc3[nH]c1n1cncc21
100%

Give its residual activity value. Item: CS(=O)(=O)CCNCc1ccc(-c2ccc3ncnc(Nc4ccc(OCc5cccc(F)c5)c(Cl)c4)c3c2)o1
99.7%

Give its residual activity value. Item: N#C/C(=C\c1ccc(O)c(O)c1)C(=O)NCc1ccccc1
98.1%

Give its residual activity value. Item: CCCCc1c(-c2ccc(OC)cc2)[nH]c2nccnc12
98.2%

Give its residual activity value. Item: Fc1ccc(-c2nc3n(c2-c2ccncc2)CCS3)cc1
88.1%

Give its residual activity value. Item: CO[C@@H]1[C@H](N(C)C(=O)c2ccccc2)C[C@H]2O[C@]1(C)n1c3ccccc3c3c4c(c5c6ccccc6n2c5c31)C(=O)NC4
99.6%
